- assay-summary: Two-fold Williamson etherification: BINOL bis(chloroethoxyethyl ether) (Me/H/iPr-6_2) + BINOL bisphenol (Me/H/iPr-2), 1:1, Cs2CO3 (3.2 equiv); ring closure = phenoxide O-alkylation by alkyl chloride
- experimental-conditions: the molecule shown is the open-chain precursor; 42-membered ring; MeCN; 9.0 mM; 85.0 °C; 6.0 h
value-kind: ring closure, isolated yield (%)
Form entry: value (%) — number only.

Entry COCOc1c(-c2cc(C)c(O)c(C)c2)cc2ccccc2c1-c1c(OCOC)c(-c2cc(C)c(OCCOCCOc3c(C)cc(-c4cc5ccccc5c(-c5c(OCOC)c(-c6cc(C)c(OCCOCCCl)c(C)c6)cc6ccccc56)c4OCOC)cc3C)c(C)c2)cc2ccccc12 has what ring closure, isolated yield?
59.4

Entry COCOc1c(-c2cc(C(C)C)c(O)c(C(C)C)c2)cc2ccccc2c1-c1c(OCOC)c(-c2cc(C(C)C)c(OCCOCCOc3c(C(C)C)cc(-c4cc5ccccc5c(-c5c(OCOC)c(-c6cc(C(C)C)c(OCCOCCCl)c(C(C)C)c6)cc6ccccc56)c4OCOC)cc3C(C)C)c(C(C)C)c2)cc2ccccc12 has what ring closure, isolated yield?
76.5

Entry COCOc1c(-c2ccc(O)cc2)cc2ccccc2c1-c1c(OCOC)c(-c2ccc(OCCOCCOc3ccc(-c4cc5ccccc5c(-c5c(OCOC)c(-c6ccc(OCCOCCCl)cc6)cc6ccccc56)c4OCOC)cc3)cc2)cc2ccccc12 has what ring closure, isolated yield?
77.8

###

- assay-summary: Two-fold Williamson etherification: BINOL bis(chloroethoxyethyl ether) (Me/H/iPr-6_2) + BINOL bisphenol (Me/H/iPr-2), 1:1, Cs2CO3 (3.2 equiv); ring closure = phenoxide O-alkylation by alkyl chloride
- experimental-conditions: the molecule shown is the open-chain precursor; 42-membered ring; MeCN; 9.0 mM; 85.0 °C; 6.0 h
value-kind: ring closure, isolated yield (%)
Form entry: value (%) — number only.

Entry COCOc1c(-c2ccc(OCCOCCCl)cc2)cc2ccccc2c1-c1c(OCOC)c(-c2ccc(OCCOCCOc3c(C(C)C)cc(-c4cc5ccccc5c(-c5c(OCOC)c(-c6cc(C(C)C)c(O)c(C(C)C)c6)cc6ccccc56)c4OCOC)cc3C(C)C)cc2)cc2ccccc12 [(R,S)-HiPr-M2_2 ((R)-H unit, (S)-iPr unit)] has what ring closure, isolated yield?
48.9

Entry COCOc1c(-c2ccc(OCCOCCCl)cc2)cc2ccccc2c1-c1c(OCOC)c(-c2ccc(OCCOCCOc3c(C(C)C)cc(-c4cc5ccccc5c(-c5c(OCOC)c(-c6cc(C(C)C)c(O)c(C(C)C)c6)cc6ccccc56)c4OCOC)cc3C(C)C)cc2)cc2ccccc12 [(S,S)-HiPr-M2_2] has what ring closure, isolated yield?
72.7
